Assay: qHTS assay for identifying genotoxic compounds that show differential cytotoxicity against isogenic chicken DT40 cell lines with known DNA damage response pathways - wild type cell line (AID 743012); note: nearly all actives have a fitted effect of over 60% in size
Details: DT40 wild type chicken cells viability, CellTiter-Glo, 40 h; series mostly up to 68.4 µM
Inconclusive results are not listed. The source made the active and inactive calls. Calls come from the whole dose curve; as a rule, active = well fitted cell-killing curve with a large enough effect in the repeat runs; inconclusive = weak or mixed curves, or effect the other way; inactive = no such curve, though single readings can be large or run the other way.
Entry note: the call must match one of active, inactive

Task: What classification did Clc1ccc(C(Cn2ccnc2)OCc2c(Cl)cccc2Cl)c(Cl)c1 (configuration not stated) end up with in this test?
Output: active

Task: What classification did CC(C)=C1CC[C@@H](C)CC1=O end up with in this test?
Output: inactive

Task: What classification did CCCCCCC(C)Nc1ccc(Nc2ccccc2)cc1 (configuration not stated) end up with in this test?
Output: active

Task: What classification did Clc1ccc(C(Cn2ccnc2)OCc2ccsc2Cl)c(Cl)c1 (configuration not stated) end up with in this test?
Output: active

Task: What classification did Cn1cnc2ncnc(N)c21 end up with in this test?
Output: inactive

Task: What classification did Oc1c(Br)cc(Br)c2cccnc12 end up with in this test?
Output: active

Task: What classification did CCCC(CC)CCCCCCCN (configuration not stated) end up with in this test?
Output: inactive

Task: What classification did COc1cc(C=C2CCC/C(=C\c3ccc(O)c(OC)c3)C2=O)ccc1O end up with in this test?
Output: active

Task: What classification did CCCCCCCCCC(=O)N(C)C end up with in this test?
Output: inactive

Task: What classification did O[C@@H](c1cc(C(F)(F)F)nc2c(C(F)(F)F)cccc12)[C@H]1CCCCN1 end up with in this test?
Output: active

Task: What classification did CCCCCCCCCCCCN(CCO)CCO end up with in this test?
Output: active

Task: What classification did Cc1cc2c(C(C)C)c(O)c(O)c(C=O)c2c(O)c1-c1c(C)cc2c(C(C)C)c(O)c(O)c(C=O)c2c1O end up with in this test?
Output: active

Task: What classification did CN(C)c1ccc(N=Nc2ccccc2C(=O)O)cc1 end up with in this test?
Output: inactive

Task: What classification did COc1ccccc1OCCNCC(O)COc1cccc2[nH]c3ccccc3c12 (configuration not stated) end up with in this test?
Output: active

Task: What classification did Clc1ccc(C(c2ccccc2Cl)C(Cl)Cl)cc1 (configuration not stated) end up with in this test?
Output: active

Task: What classification did CNC(=O)c1cc(Oc2ccc(NC(=O)Nc3ccc(Cl)c(C(F)(F)F)c3)cc2)ccn1 end up with in this test?
Output: active

Task: What classification did CCN=C1C=CC(=C(c2ccc(N(CC)CC)cc2)c2ccc(N(CC)CC)cc2)c2ccccc21 end up with in this test?
Output: active

Task: What classification did COc1cccc(CCc2ccccc2OCC(CN(C)C)OC(=O)CCC(=O)O)c1 (configuration not stated) end up with in this test?
Output: active

Task: What classification did CCc1ccc(O)c(C(C)(C)C)c1 end up with in this test?
Output: active

Task: What classification did COc1ccc2sc(C(=O)Nc3nnn[nH]3)c(OC(C)C)c2c1 end up with in this test?
Output: active

Task: What classification did C/C=C/C=N/NC(=O)c1ccncc1 end up with in this test?
Output: inactive

Task: What classification did CCCCOc1ccc(C(=O)CCN2CCCCC2)cc1 end up with in this test?
Output: active

Task: What classification did CN1CCN(C2Cc3ccccc3Sc3ccc(Cl)cc32)CC1 (configuration not stated) end up with in this test?
Output: active

Task: What classification did SCCCCCCCCS end up with in this test?
Output: active

Task: What classification did O=C(Nc1ccc(Cl)c(Cl)c1)c1cc(Cl)cc(Cl)c1O end up with in this test?
Output: active

Task: What classification did CC(=O)OC(OC(C)=O)c1ccc([N+](=O)[O-])o1 end up with in this test?
Output: active

Task: What classification did CC(NCCC(c1ccccc1)c1ccccc1)c1ccccc1 (configuration not stated) end up with in this test?
Output: active

Task: What classification did CC(C)(c1cc(Br)c(O)c(Br)c1)c1cc(Br)c(O)c(Br)c1 end up with in this test?
Output: active

Task: What classification did CC(C)(C)C1=CC(=O)C=C(C(C)(C)C)C1=O end up with in this test?
Output: inactive

Task: What classification did CC(C)c1cccc(C(C)C)c1N1C(=O)c2ccc(O)cc2C1=O end up with in this test?
Output: active

Task: What classification did CCC(C)(C)c1cc(O)c(C(C)(C)CC)cc1O end up with in this test?
Output: active

Task: What classification did Clc1ccccc1CN1CCc2sccc2C1 end up with in this test?
Output: active
